# system name: Human IP6K1 (Homo sapiens, UniProt Q92551)
# Construct: GST (N, cleaved yes); made in house; host or cells: C43 E. coli, pGEX-6P-2
# Sequence (Q92551 whole entry): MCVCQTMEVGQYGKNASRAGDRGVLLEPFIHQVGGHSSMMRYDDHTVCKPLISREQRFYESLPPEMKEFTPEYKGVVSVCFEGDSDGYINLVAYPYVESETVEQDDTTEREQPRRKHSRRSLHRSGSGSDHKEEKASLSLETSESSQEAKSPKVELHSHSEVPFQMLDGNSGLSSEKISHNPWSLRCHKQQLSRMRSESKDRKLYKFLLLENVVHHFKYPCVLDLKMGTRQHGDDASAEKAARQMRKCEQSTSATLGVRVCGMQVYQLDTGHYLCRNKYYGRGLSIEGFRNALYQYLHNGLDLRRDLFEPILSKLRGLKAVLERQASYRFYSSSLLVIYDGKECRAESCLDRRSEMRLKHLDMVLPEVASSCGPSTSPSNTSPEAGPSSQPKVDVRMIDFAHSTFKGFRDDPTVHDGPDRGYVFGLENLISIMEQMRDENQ
# assay name: IP6K1 high-throughput screen of the Sigma LOPAC (ADP-Glo Max, single point);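 further: final compound concentration 10µM in 5% DMSO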
# Format: biochemical
# stated conditions: LOPAC single-point screen, ADP-Glo Max luminescence raw signal per well
Where a SMILES comes first, the peptide text is derived from it. The star is where a group is joined. Cbz = O=C(OCc1ccccc1)*
Parameter threshold = 50000. Response is yes when Raw Signal meets or exceeds it, else no.

Solved cases below.
O=c1c(O)c(-c2ccc(O)c(O)c2)oc2cc(O)cc(O)c12 [Quercetin dihydrate] : yes
NCCCCCC(=O)O [6-Aminohexanoic acid] : yes
NCC1(CC(=O)O)CCCCC1 [Gabapentin] : yes

Q: Does the reported Raw Signal for CC(C)[C@H](NC(=O)OCc1ccccc1)C(=O)N[C@H](C=O)Cc1ccccc1 [MDL 28170] (Cbz-Val-Phe-aldehyde) fall at or above the 50000 mark?
A: yes

----------
# system name: Human IP6K1 (Homo sapiens)
# Construct: GST (N, cleaved yes); made in house; host or cells: C43 E. coli, pGEX-6P-2
# assay name: IP6K1 high-throughput screen of the Sigma LOPAC (ADP-Glo Max, single point);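 further: final compound concentration 10µM in 5% DMSO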
# Assay type: biochemical
# stated conditions: Sigma LOPAC single-point screen, ADP-Glo Max raw signal per well
Where a name gives a salt, the structure may show the parent alone.
The entries below come with measured Raw Signal values attached.

Below, 2 compounds whose answers are already recorded.
COc1cc2ncnc(Nc3cccc(Cl)c3)c2cc1OC : 57891
CC(C)NC[C@H](O)COc1cccc2ccccc12 [(S)-Propranolol hydrochloride] : 59687

Q: So what's the measured Raw Signal for this one? CN/C(=N/CCSCc1nc[nH]c1C)NC#N
A: 62612

Q: Field entry: NCC(CC(=O)O)c1ccc(Cl)cc1 (racemic) [(±)-Baclofen]
A: 65373

Q: Field entry: OCCN1CCN(CCCN2c3ccccc3Sc3ccc(C(F)(F)F)cc32)CC1 [Fluphenazine dihydrochloride]
A: 57313

Q: Field entry: CC(=O)c1ccc(S(=O)(=O)NC(=O)NC2CCCCC2)cc1 [Acetohexamide]
A: 64165

Q: Field entry: C[C@H]1CCC/C=C/[C@@H]2C[C@H](O)C[C@H]2[C@H](O)/C=C/C(=O)O1
A: 59928

----------
# system name: Human IP6K1 (Homo sapiens)
# Construct: GST (N, cleaved yes); made in house; host or cells: C43 E. coli, pGEX-6P-2
# assay name: IP6K1 high-throughput screen of the Sigma LOPAC (ADP-Glo Max, single point);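 further: final compound concentration 10µM in 5% DMSO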
# Type: biochemical
The entries below come with measured Z-score values attached.
Just the number, please, no unit after it.

Q: So what's the measured Z-score for this one? Br.COc1ccc(-c2ccc(=N)n(CCCC(=O)O)n2)cc1
A: 0.7671

Q: Field entry: O=C(O)CN(CCOCCOCCN(CC(=O)O)CC(=O)O)CC(=O)O
A: 0.08428

Q: Field entry: C[C@@H](N)Cc1cnc[nH]1.Cl.Cl
A: 0.03533

----------
# system name: Human IP6K1 (Homo sapiens, UniProt Q92551)
# Construct: GST (N, cleaved yes); made in house; host or cells: C43 E. coli, pGEX-6P-2
# assay name: IP6K1 high-throughput screen of the Sigma LOPAC (ADP-Glo Max, single point);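 further: final compound concentration 10µM in 5% DMSO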
# Assay type: biochemical
# stated conditions: Sigma LOPAC single-point screen; Z-score from plate average and StDev
Structures can show the parent of a compound that is named as a salt.
The entries below come with measured Z-score values attached.
Just the number, please, no unit after it.

Cc1cn([C@H]2C[C@H](N=[N+]=[N-])[C@@H](CO)O2)c(=O)[nH]c1=O : 0.6555
O=C(CCc1ccc(O)cc1)c1c(O)cc(O)cc1O : 0.5112
CC(=O)NNC(=O)N1Cc2ccccc2Oc2ccc(Cl)cc21 : 0.3418

Q: Find the measured Z-score: item COC(=O)[C@@H](N)CCCN=C(N)N[N+](=O)[O-].Cl , target or system Human IP6K1 (Homo sapiens, UniProt Q92551).
A: 0.6839

Q: Field entry: CC(C)NNC(=O)c1ccncc1.O=P(O)(O)O [Iproniazid phosphate]
A: 1.037

Q: Field entry: C[N+](C)(C)CCCCCC[N+](C)(C)C.[Cl-].[Cl-] [Hexamethonium dichloride]
A: 0.5028

Q: Field entry: CN(Cc1cnc2nc(N)nc(N)c2n1)c1ccc(C(=O)N[C@@H](CCC(=O)O)C(=O)O)cc1 [(-)Amethopterin]
A: 0.6074

Q: Field entry: COc1ccc(CN(CCN(C)C)c2ccccn2)cc1 [Pyrilamine maleate]
A: 0.9844

Q: Field entry: CC(C)[N+](C)(CCOC(=O)C1c2ccccc2Oc2ccccc21)C(C)C [Propantheline bromide]
A: 0.4683

Q: Field entry: O=C1CCC(c2ccc(-n3ccnc3)cc2)=NN1
A: 0.9834

Q: Field entry: Cl.O=c1[nH]oc2c1CCNC2 [THIP hydrochloride]
A: 0.8384

Q: Field entry: Nc1nc(O)c2ncn(COC(CO)CO)c2n1
A: 0.4186
